System: benzodiazepine receptors
Test Summary: In vivo inhibition of 3H-flunitrazepam binding to mouse forebrain membranes, test substances i.p. (Procedure 130)
Setup Conditions: 3H-flunitrazepam i.v., dose inhibiting 50% of specific forebrain binding
Criterion: ED50 binding in vivo strictly under 0.06 mg/kg. Met: TRUE. Not met: FALSE.

>>> df
                                   molecule  assigned_label
0  CN1Cc2c(-c3noc(C4CC4)n3)ncn2-c2cccc(C(F)(F)F)c2C1=O            TRUE
1  CN1Cc2c(-c3noc(C4CC4)n3)ncn2-c2cccc(F)c2C1=O           FALSE
2  CC(C)c1noc(-c2ncn3c2CN(C)C(=O)c2c(Cl)cccc2-3)n1           FALSE
3  O=C1c2c(Cl)cccc2-n2cnc(-c3noc(C4CC4)n3)c2C2CCCN12 (stereo not drawn)           FALSE
4  O=C1c2c(Cl)cccc2-n2cnc(-c3nc(C4CC4)no3)c2C2CCCN12 (stereo not drawn)           FALSE

* * *

Entries annotated with measured ED50
Tested on: pentylenetetrazol induced clonic convulsions
Test Summary: Pentazol clonic conv. mice (i.p.) (Procedure 400)
Format: in vivo, mice (NMRI)
Setup Conditions: Mus musculus, ip, 0.5 h, i.p. 30 min before pentylenetetrazol 150 mg/kg s.c., clonic seizures, read-out: ED50 activity against pentazol induced convulsions, clonic
Outcome Measure: ED50

>>> df
                         compound_structure                         target_under_test  test_result
0  CN1Cc2c(-c3noc(C4CC4)n3)ncn2-c2cccc(F)c2C1=O  pentylenetetrazol induced clonic convulsions   0.02 mg/kg
1  CC(C)c1noc(-c2ncn3c2CN(C)C(=O)c2c(Cl)cccc2-3)n1  pentylenetetrazol induced clonic convulsions    0.6 mg/kg
2  CN1Cc2c(-c3nc(C4CC4)no3)ncn2-c2cccc(Cl)c2C1=O  pentylenetetrazol induced clonic convulsions   0.09 mg/kg
3  CN1Cc2c(-c3noc(C4CC4)n3)ncn2-c2cccc(C(F)(F)F)c2C1=O  pentylenetetrazol induced clonic convulsions  0.008 mg/kg

Source: patent US4745112A
